Target: T1, extracellular domain (ECD) of murine IGSF11, biotinylated (mouse, UniProt P0C673 23-240, biotinylated (site not stated))
T1 construct: also called Mouse IGSF11; murine IGSF11 protein
T1 sequence: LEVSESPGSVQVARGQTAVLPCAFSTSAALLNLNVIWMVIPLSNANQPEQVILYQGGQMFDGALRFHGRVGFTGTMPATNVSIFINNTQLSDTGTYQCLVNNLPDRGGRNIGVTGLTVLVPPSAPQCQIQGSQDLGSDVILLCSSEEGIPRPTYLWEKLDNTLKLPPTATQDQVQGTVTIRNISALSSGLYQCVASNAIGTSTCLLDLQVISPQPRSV
Experiment: ELISA, scFv; RFU grade (*** >1.0, ** 0.5-1.0, * 0.1-0.5)
Below is a list of entries, each paired with its recorded relative fluorescent units (RFU), ELISA value.

# count of solved cases: 4
BINDER | relative fluorescent units (RFU), ELISA
A-016 (scFv format) (scFv, V domains shown, scFv) VH: QVQLQESGAEVKKPGASVKVSCKASGYTFTGYYMHWVRQAPGQGLEWMGGIIPIFGTANYAQKFQGRVTITADESTSTAYMELSSLRSEDTAVYYCAGAGMELTRSGAYYYYGMDVWGQGTTVTVSS VL: QSALTQPASVSGSPGQSITISCTGTSSDIGGYTFVSWYQQHPGKAPKVMIHDVNNRPSGISNRFSGSKSGNTASLTISGLQAEDEADYYCSSVTSTNTYVFGTGTKVTVL | 0.5 to 1 rfu
A-030 (scFv format) (scFv, V domains shown, scFv) VH: QVQLVQSGAEVKKPGASVKVSCKASGYTFTGYYMHWVRQAPGQGLEWMGWINPNSGNTGYAQKFQGRVTMTRNTSISTAYMELSSLRSEDTAVYYCARGGQQQLVLDDYWGQGTLVTVSS VL: DIQLTQSPSTLSASVGDRVTITCRASQSIGGWLAWYQHKPGKAPKLLIYAASSLQSGVPSRFSGSGSGTDFTLTISSLQPEDFATYYCRQSYSTPPTFGQGTKVEIK | 0.1 to 0.5 rfu
A-008 (scFv format) (scFv, V domains shown, scFv) VH: QLQLQESGPGLVKPSETLSLTCTVSGGSISSSGYYWGWIRQPPGKGLEWIGSIYYSGSTYYNPSLKSRVTISVDTSKNQFSLKLSSVTAADTAVYYCARHRVRFGEFDAFDIWGQGTMVTVSS VL: QAVLTQPPSVSGAPGERVTLSCTGTSSNVGADFDVHWYQQFPGTAPRLLIFGSDNRPSGVPDRFSGSKSGTSASLAITGLQVEDEADYYCQAYDVRLSGWVFGGGTKLTVL | > 1 rfu
A-023 (scFv format) (scFv, V domains shown, scFv) VH: QVQLVQSGAEVKKPGSSVKVSCKASGGTFSSYAISWVRQAPGQGLEWMGGIIPIFGTANYAQKFQGRVTITADESTSTAYMELSSLRSEDTAVYYCARPKYSSGWFYYYGMDVWGQGTTVTVSS VL: QSVLTQPPSVSAAPGQKVTISCSGSSSNIGNNYVSWYQQLPGTAPKLLIYDNNKRPSGIPDRFSGSKSGTSATLGITGLQTGDEADYYCGTWDSSLSVVFGGGTKLTVL | 0.1 to 0.5 rfu

In the following, a different binder is considered.
Problem: State, in one line, measured relative fluorescent units (RFU), ELISA of A-026 (scFv format) (scFv, V domains shown, scFv) VH: QVQLQESGPGLVKPSQTLSLTCTVSGGSISSGGYYWSWIRQHPGKGLEWIGYIYYSGSTYYNPSLKSRVTISVDTSKNQFSLKLSSVTAADTAVYYCASWSLGTSNHGWFDPWGQGTLVTVSS VL: QSVLTQPPSASGTPGQRVTISCSGSSSNIGSNTVNWYQQLPGTAPKLLISDNNNRPSGVPDRFSGSKSGTSASLAITGLQAEDEADYYCQSYDSNLSGWVFGGGTKLTVL
Solution: > 1 rfu
